Molecular target: KEAP1 C151 (Homo sapiens, UniProt Q14145)
Construct: treating 500 μg of cell lysate generated from MDA-MB-468 breast cancer cells with DMSO or compound; endogenous in cells
Sequence (Q14145 whole entry): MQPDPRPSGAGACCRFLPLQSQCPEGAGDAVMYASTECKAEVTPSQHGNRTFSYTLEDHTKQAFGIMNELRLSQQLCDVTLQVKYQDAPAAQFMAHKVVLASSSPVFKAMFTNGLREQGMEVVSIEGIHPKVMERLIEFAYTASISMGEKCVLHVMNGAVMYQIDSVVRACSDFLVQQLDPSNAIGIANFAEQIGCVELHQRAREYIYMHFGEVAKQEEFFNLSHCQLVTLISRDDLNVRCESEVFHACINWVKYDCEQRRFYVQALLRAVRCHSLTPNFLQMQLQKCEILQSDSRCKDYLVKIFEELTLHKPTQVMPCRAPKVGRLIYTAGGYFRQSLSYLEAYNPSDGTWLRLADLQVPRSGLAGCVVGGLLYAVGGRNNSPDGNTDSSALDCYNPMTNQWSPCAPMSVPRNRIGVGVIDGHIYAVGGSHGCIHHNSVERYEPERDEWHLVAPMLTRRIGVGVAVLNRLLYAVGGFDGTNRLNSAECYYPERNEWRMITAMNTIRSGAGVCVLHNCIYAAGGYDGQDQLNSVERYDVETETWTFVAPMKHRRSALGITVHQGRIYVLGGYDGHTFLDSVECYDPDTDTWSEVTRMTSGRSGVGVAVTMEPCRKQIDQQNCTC
Experiment: Nrf2 TMT measurement: in vitro TE50 for KEAP1 C151 (IA-DTB competition, targeted TMT mass spectrometry) in MDA-MB-468 cell lysate
Details: in vitro target engagement of KEAP1 C151, targeted TMT, read-out: KEAP1_C151 TE50
pIC50: −log10 of the molar value.
Use satisfied when the recorded pIC50 is no lower than 7; use not satisfied when it is lower.

# compound, assignedCategory
data = [
    ("C=CC(=O)N1CC2(CCCC2)OCC1(C)c1cc(Cl)cc(-c2cc(N)ncn2)c1 (single isomer, unassigned)", "not satisfied"),
    ("C=CC(=O)N1CCCCC1c1cc(Cl)cc(-c2ncc(N)cn2)c1 (single isomer, unassigned)", "not satisfied"),
    ("C=CC(=O)N1CCOCC1c1cc(Cl)cc(-c2cc(C)ncn2)c1 (single isomer, unassigned)", "satisfied"),
    ("C=CC(=O)N1CCOC[C@H]1c1cc(Cl)cc(-c2nccc(N)n2)c1 (single isomer, unassigned)", "satisfied"),
    ("C=CC(=O)N1CC2(CC2)OCC1(C)c1cc(Cl)cc(-c2ncc(F)cn2)c1 (single isomer, unassigned)", "not satisfied"),
    ("C=CC(=O)N1CC2(CC2)N(C(=O)C2CC2)CC1c1cc(Cl)cc(-c2ncc(N)cn2)c1 (single isomer, unassigned)", "satisfied"),
]

---

Molecular target: KEAP1 C151 (Homo sapiens, UniProt Q14145)
Construct: treating 500 μg of cell lysate generated from MDA-MB-468 breast cancer cells with DMSO or compound; endogenous in cells
Test: Nrf2 TMT measurement: in vitro TE50 for KEAP1 C151 (IA-DTB competition, targeted TMT mass spectrometry) in MDA-MB-468 cell lysate
Details: in vitro target engagement of KEAP1 C151, targeted TMT, read-out: KEAP1_C151 TE50
pIC50: −log10 of the molar value.
Use True when the recorded pIC50 is no lower than 7; use False when it is lower.

# compound, assignedCategory
rows = [
    ("C=CC(=O)N1CCS(=O)(=O)CC1c1cc(Cl)cc(-c2ccnc(C)n2)c1 (single isomer, unassigned) [Compound 51]", "False"),
    ("C=CC(=O)N1CCOC[C@H]1c1cc(Cl)cc(-c2cncc(N)n2)c1 (single isomer, unassigned)", "True"),
    ("C=CC(=O)N1CCOC[C@H]1c1cc(Cl)cc(-c2cc3[nH]ccc3cn2)c1 (single isomer, unassigned)", "True"),
    ("C=CC(=O)N1CC2(CC2)OCC1c1cc(Cl)cc(-c2ccc(F)c(C(N)=O)c2)c1 (single isomer, unassigned)", "True"),
    ("C=CC(=O)N1CC(C)(C)S(=O)(=O)CC1c1cc(Cl)cc(-c2nccc(N)n2)c1 (single isomer, unassigned)", "True"),
    ("C=CC(=O)N1CC(C)(C)OC[C@H]1c1cc(Cl)cc(-c2ccc(F)c(C(N)=O)c2)c1 (single isomer, unassigned)", "True"),
    ("C=CC(=O)N1CCN(C(C)=O)C[C@H]1c1cc(Cl)cc(-c2nccc(N)n2)c1 (single isomer, unassigned)", "True"),
    ("C=CC(=O)N1CCOCC1c1cc(Cl)nc(-c2ccn3ccnc3c2)c1 (single isomer, unassigned)", "True"),
    ("C=CC(=O)N1CC2(CCCC2)OCC1(C)c1cc(Cl)cc(-c2ncc(F)cn2)c1 (single isomer, unassigned)", "False"),
    ("C=CC(=O)N1[C@H](CC#N)COC[C@H]1c1cc(Cl)cc(-c2cc(N)ncn2)c1 (single isomer, unassigned)", "True"),
    ("C=CC(=O)N1CCOC[C@H]1c1cc(Cl)cc(C2CNC(=S)N(C)C2)c1 (single isomer, unassigned) [Compound 226]", "False"),
    ("C=CC(=O)N1CCN(C(C)=O)C[C@H]1c1cc(Cl)cc(-c2ncc(N)cn2)c1 (single isomer, unassigned)", "True"),
    ("C=CC(=O)N1CCC(F)(F)CC1c1cc(Cl)cc(-c2cc(C)ncn2)c1 (single isomer, unassigned)", "True"),
    ("C=CC(=O)N1CCOC[C@H]1c1cc(Cl)cc(N2CCC(N)C2=O)c1 (single isomer, unassigned)", "False"),
    ("C=CC(=O)N1CCOC[C@H]1c1cc(Cl)cc(C2CNC(=S)CO2)c1 (single isomer, unassigned) [Compound 241]", "False"),
    ("C=CC(=O)N1CC[C@](C)(O)C[C@@H]1c1cc(Cl)cc(-c2ncc(N)cn2)c1 (single isomer, unassigned)", "False"),
    ("C=CC(=O)N1CCN(S(C)(=O)=O)C[C@H]1c1cc(Cl)cc(-c2ccnc(N3CCCC3=O)c2)c1 (single isomer, unassigned)", "True"),
    ("C=CC(=O)N1CCOCC1c1cc(C#N)cc(-c2ccc(F)c(C(N)=O)c2)c1 (single isomer, unassigned)", "True"),
    ("C=CC(=O)N1CCOC[C@H]1c1cc(Cl)cc(-c2ncc(C(N)=O)o2)c1 (single isomer, unassigned)", "True"),
    ("C=CC(=O)N1CCOC[C@H]1c1cc(Cl)cc(-c2ccncc2)c1 (single isomer, unassigned)", "True"),
]
